Assay: Rat oral bioavailability of tipranavir disodium spray dried powders
Format: in vivo
Details: plasma, 20 mg/kg, fasted, read-out: AUCInf, fasted

molecule	AUC(0-inf), ng·h/mL
CCC[C@@]1(CCc2ccccc2)CC(O)=C([C@H](CC)c2cccc(NS(=O)(=O)c3ccc(C(F)(F)F)cn3)c2)C(=O)O1 [Tipranavir Disodium bulk drug, tipranavir disodium]	23400

* * *

Test: Solubility
Format: physicochemical
Settings: water, pH 6, water
endpointLabel: solubility

> print(dat)
                                   molecule          value
1  CCC[C@@]1(CCc2ccccc2)CC(O)=C([C@H](CC)c2cccc(NS(=O)(=O)c3ccc(C(F)(F)F)cn3)c2)C(=O)O1 [tipranavir]  5 to 10 µg/mL
